Experiment: Ratio of EC50 for human HepG2 cells to EC50 for Plasmodium falciparum 3D7 infected in human erythrocytes
PROPERTY_NAME: Ratio EC50

>>> recorded_measurement("Fc1ccc(Cc2ccc3c(NCCCNCc4ccco4)ccnc3c2)cc1")
97.5
>>> recorded_measurement("COc1ccc(F)cc1CNCCCNc1ccnc2cc(CC(C)C)ccc12")
32.7
>>> recorded_measurement("COc1cccc(CNCCCNc2ccnc3cc(Cc4ccc(F)cc4)ccc23)c1O")
316.6
>>> recorded_measurement("COc1cccc(CNCCCNc2ccnc3cc(CC4CCCCC4)ccc23)c1O")
19.6
>>> recorded_measurement("c1coc(CNCCCNc2ccnc3cc(-c4cccc5ccccc45)ccc23)c1")
178.2
>>> recorded_measurement("c1ccc(Oc2ccc3c(NCCCNCc4ccco4)ccnc3c2)cc1")
48
